These entries and their values trace back to PubChem BioAssay (NCI).

# Test system: IGROV1 ovarian
# PROCEDURE DETAILS: NCI tumour cell line growth inhibition, 48 h
Measured TGI values are reported for all entries that follow.
METRIC: TGI

{"COMPOUND": "COc1cc(/C=C2\\C[C@H]3[C@@H]4CCc5cc(O)ccc5[C@H]4CC[C@]3(C)C2=O)cc(OC)c1OC", "MEASURED ON": "IGROV1 ovarian", "METRIC": "TGI", "ASSAY VALUE": "32.8 µM"}
{"COMPOUND": "O=S1(=O)C[C@H](O)[C@H](O)CS1", "MEASURED ON": "IGROV1 ovarian", "METRIC": "TGI", "ASSAY VALUE": "> 100 µM"}
{"COMPOUND": "Nc1ncnc2c1ccn2C/C=C\\CO", "MEASURED ON": "IGROV1 ovarian", "METRIC": "TGI", "ASSAY VALUE": "> 100 µM"}
{"COMPOUND": "COc1ccc2c(c1)CCCC(Br)C2=O (centres undefined)", "MEASURED ON": "IGROV1 ovarian", "METRIC": "TGI", "ASSAY VALUE": "4.28 µM"}
{"COMPOUND": "N#Cc1c(-c2ccc(Cl)cc2)c2c([nH]c1=O)-c1ccccc1SC2", "MEASURED ON": "IGROV1 ovarian", "METRIC": "TGI", "ASSAY VALUE": "> 100 µM"}
{"COMPOUND": "COc1ccc2c3c([nH]c2c1[N+](=O)[O-])C(C)=NCC3", "MEASURED ON": "IGROV1 ovarian", "METRIC": "TGI", "ASSAY VALUE": "77.2 µM"}
{"COMPOUND": "COc1cc(C(Cc2ccccc2)NC(C)=O)oc(=O)c1 (centres undefined)", "MEASURED ON": "IGROV1 ovarian", "METRIC": "TGI", "ASSAY VALUE": "> 100 µM"}
{"COMPOUND": "CC(=O)c1cccc(NC(=O)C(=O)NNc2n[nH]c(=S)n2N)c1", "MEASURED ON": "IGROV1 ovarian", "METRIC": "TGI", "ASSAY VALUE": "25.8 µM"}
{"COMPOUND": "O=C(NCC(=O)N1CCCC1C(=O)OC(=O)C1CCCN1C(=O)CNC(=O)OCc1ccccc1)OCc1ccccc1 (centres undefined)", "MEASURED ON": "IGROV1 ovarian", "METRIC": "TGI", "ASSAY VALUE": "> 100 µM"}
{"COMPOUND": "S=C(Nc1ccccc1)N(/N=C/C=C/c1ccccc1)c1nnc(-c2ccccc2)c(-c2ccccc2)n1", "MEASURED ON": "IGROV1 ovarian", "METRIC": "TGI", "ASSAY VALUE": "> 100 µM"}
{"COMPOUND": "O=C(O)c1ccc(Nc2c3ccccc3nc3ccccc23)cc1", "MEASURED ON": "IGROV1 ovarian", "METRIC": "TGI", "ASSAY VALUE": "> 100 µM"}
{"COMPOUND": "COC(=O)c1ccc(C(=O)NC(Cc2ccc(Oc3cc(CC(NC(=O)c4ccccc4C(=O)OC)C(=O)OC)ccc3OC)cc2)C(=O)OC)cc1 (centres undefined)", "MEASURED ON": "IGROV1 ovarian", "METRIC": "TGI", "ASSAY VALUE": "> 100 µM"}
{"COMPOUND": "Nc1ccc2c(c1)N(C(=O)c1cc3cc(NC(=O)c4cc5ccccc5o4)ccc3[nH]1)CC2CCl (centres undefined)", "MEASURED ON": "IGROV1 ovarian", "METRIC": "TGI", "ASSAY VALUE": "> 100 µM"}
{"COMPOUND": "COc1ccc(-n2cc(-c3cc(OC)c(OC)c(OC)c3)c(C(=O)C(F)(F)F)c2C)cc1", "MEASURED ON": "IGROV1 ovarian", "METRIC": "TGI", "ASSAY VALUE": "> 100 µM"}
{"COMPOUND": "C/C(=N\\NC(=S)N1CCCCC1)c1nc2ncccc2[nH]1", "MEASURED ON": "IGROV1 ovarian", "METRIC": "TGI", "ASSAY VALUE": "> 100 µM"}
{"COMPOUND": "CC(C)c1ccc2c(c1)CC[C@@H]1[C@@](C)(C(=O)O)CCC[C@]21C", "MEASURED ON": "IGROV1 ovarian", "METRIC": "TGI", "ASSAY VALUE": "29 µM"}
{"COMPOUND": "COC(=O)CC(C#N)(OP1(=O)OC(c2ccccc2)C(C)N1C)c1ccccc1 (centres undefined)", "MEASURED ON": "IGROV1 ovarian", "METRIC": "TGI", "ASSAY VALUE": "> 100 µM"}
{"COMPOUND": "CCCCCCNC(=O)c1cc(NCc2cc(O)ccc2O)ccc1O", "MEASURED ON": "IGROV1 ovarian", "METRIC": "TGI", "ASSAY VALUE": "38.7 µM"}
{"COMPOUND": "CCC(C)n1ncn(-c2ccc(N3CCN(c4ccc(OCC5COC(Cn6cncn6)(c6ccc(Cl)cc6Cl)O5)cc4)CC3)cc2)c1=O (centres undefined)", "MEASURED ON": "IGROV1 ovarian", "METRIC": "TGI", "ASSAY VALUE": "> 100 µM"}
